All figures here come from patent US20200115416A1.

# TARGET_OR_SYSTEM: mouse melanocortin-4 receptor (mouse, UniProt P56450 1-332)
# Sequence (P56450 whole entry): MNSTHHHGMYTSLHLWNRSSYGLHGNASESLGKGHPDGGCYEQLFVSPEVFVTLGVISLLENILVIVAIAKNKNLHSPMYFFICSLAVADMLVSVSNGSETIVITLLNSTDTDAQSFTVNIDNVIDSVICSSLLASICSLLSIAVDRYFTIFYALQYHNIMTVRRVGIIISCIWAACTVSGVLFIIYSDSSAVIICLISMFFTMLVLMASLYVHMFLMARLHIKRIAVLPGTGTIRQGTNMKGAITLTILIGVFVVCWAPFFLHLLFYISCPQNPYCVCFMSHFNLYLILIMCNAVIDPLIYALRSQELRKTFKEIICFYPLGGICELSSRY
# RUN_DESCRIPTION: cell-based or functional assay
Square brackets hold non-standard residues; d marks the D form. Nle = CCCC[C@H](N)C(=O)O
Reported agonist EC50 (cAMP AlphaScreen) values for the following binders.

Example entries and their recorded answers appear below.
cyclo(PRFFLAF[dP]) (SMILES CC(C)C[C@@H]1NC(=O)[C@H](Cc2ccccc2)NC(=O)[C@H](Cc2ccccc2)NC(=O)[C@H](CCCNC(=N)N)NC(=O)[C@@H]2CCCN2C(=O)[C@H]2CCCN2C(=O)[C@H](Cc2ccccc2)NC(=O)[C@H](C)NC1=O) [c[Pro-Arg-Phe-Phe-Leu-Ala-Phe-DPro]]: > 100 µM
cyclo(PRFF[Nle]AF[dP]) [c[Pro-Arg-Phe-Phe-Nle-Ala-Phe-DPro]]: > 100 µM

Query: Requested field: agonist EC50 (cAMP AlphaScreen). Item: cyclo(PRFFNHF[dP]) (SMILES N=C(N)NCCC[C@@H]1NC(=O)[C@@H]2CCCN2C(=O)[C@H]2CCCN2C(=O)[C@H](Cc2ccccc2)NC(=O)[C@H](Cc2c[nH]cn2)NC(=O)[C@H](CC(N)=O)NC(=O)[C@H](Cc2ccccc2)NC(=O)[C@H](Cc2ccccc2)NC1=O) [c[Pro-Arg-Phe-Phe-Asn-His-Phe-DPro]]
Result: > 100 µM
